study-system: biotinylated CD59 (Homo sapiens, UniProt P13987)
Construct: Recombinant soluble human CD59 with an additional C-terminal cysteine residue
Sequence (P13987 26-102 limits assumed): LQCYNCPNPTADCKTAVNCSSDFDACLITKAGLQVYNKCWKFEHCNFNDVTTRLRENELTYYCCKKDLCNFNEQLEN
procedure-details: mRNA-display cyclic peptide screen against CD59-biotin, NGS abundance after 6th selection round
test-parameters: counts normalised by total counts of sample Seq II; percentage of the pool, sheet R6
Each entry belongs to exactly one class, chosen by where its Percentage Seq II falls: c1 (below 0.03%), c2 (0.03% to below 0.09%), c3 (0.09% or more)

construct-sequence	assigned-label
CFSRRLTAGAT	c2
CFSARTDSSGT	c2
CYGGRTSIYAWS	c1
VAHGSKKSQFW	c3
AVRGSSFYVWG	c3
SWQNECFRLRT	c1

Where would ISYGDRSYTYY land among the classes by reported Percentage Seq II?
c3

Where would CYGGRTFVYAWS land among the classes by reported Percentage Seq II?
c3
